Exercise: for every item that follows, state its recorded self-cleavage.
B1: LINE1-full (parent)
chain: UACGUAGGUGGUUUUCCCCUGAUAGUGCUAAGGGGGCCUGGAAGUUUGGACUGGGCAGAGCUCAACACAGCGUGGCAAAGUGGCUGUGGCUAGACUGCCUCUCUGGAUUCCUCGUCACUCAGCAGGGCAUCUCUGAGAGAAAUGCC

Variants of: B1
Test: self-cleavage, relative activity (ratio to wild type); higher = more cleavage; in vitro, sequencing; the parent is a self-cleaving ribozyme

# self-cleavage (variant: UACGUAGGUGGUUUUCCCCUGAUAGUGCUAAGGGGGCCUGGAAGUUUGGACUGGGCAGGGCACAACACAGCGUGGCAAAGUGGCUGUGGCUAGACUGCCUCUCUGGAUUCCUCGUCACUCAGCAGGGCAUCUCUGAGAGAAAUGCC [A59G U62A] ) is 0.06

# self-cleavage (variant: UACGUAGGUGGUUUUCCCUUGAUAGUGCUAAGGGGGCCUGGAAGUUUGGACUGGGCAGAGCUCGACACAGCGUGGCAAAGUGGCUGUGGCUAGACUGCCUCUCUGGAUUCCUCGUCACUCAGCAGGGCAUCUCUGAGAGAAAUGCC [C19U A64G] ) is 0.25

# self-cleavage (variant: UACGUAGGUGGUUGUCCCCUGAUAGUGCUAAGGGGGCCUGGAAGUUUGGACUGGGCAGAGCUCAACACAGCGUGGCAAAGUGGCUGUGGCUAGACUGCCUCUCUGGAUUCCUCGCCACUCAGCAGGGCAUCUCUGAGAGAAAUGCC [U14G U115C] ) is 0.79

# self-cleavage (variant: UACGUAGGUGGUUUUCCCCUGAUAGUGCUAAGGGGGCCUGGAAGUUUGGACUGGGCAGAGCUCUACACAGCGUGGCAAAGGGGCUGUGGCUAGACUGCCUCUCUGGAUUCCUCGUCACUCAGCAGGGCAUCUCUGAGAGAAAUGCC [A64U U81G] ) is 0.4

# self-cleavage (variant: UACGUAGGUGGUUUUCCCCUGAUAGUGCUAAGGGGGCCUGGAAGUUUGGACUGGGCAGAGCUCAACACAGCGUGGCAAAGUGGCUGUGGCUAGACUGCCACUCUGGAUUCCUCGUCACUCAGCGGGGCAUCUCUGAGAGAAAUGCC [U100A A124G] ) is 1.02

# self-cleavage (variant: UACGUAGGCGGUUUUCCCCUGAUAGUGCUAAGGGGGCCUGGAAGUUUGGACUGGGCAGAGCUCAACACAGCGUGGCAAAGUUGCUGUGGCUAGACUGCCUCUCUGGAUUCCUCGUCACUCAGCAGGGCAUCUCUGAGAGAAAUGCC [U9C G82U] ) is 1.34

# self-cleavage (variant: UACGUAGGUGGUUUUCCCCUGAUAGUGCUAAGGGGGCCUGGAAGUUUGGACUGGGCUGAGCUCAACACAGCGUGGCAAAGUGGCUGUGGUUAGACUGCCUCUCUGGAUUCCUCGUCACUCAGCAGGGCAUCUCUGAGAGAAAUGCC [A57U C90U] ) is 0.02

# self-cleavage (variant: UACGUAGGUGGUUUUCCCCUGAUAGUGCUAAGGGGGCCUGGAAGUUUGGACUGGGCAGAGCUCAACACAGCGUGGCAAAGUGGCUGUGGGUAGACUGCCUCUCUGGAUUCCUCGUCACUCAGCAGGGCAUCCCUGAGAGAAAUGCC [C90G U132C] ) is 0.05

# self-cleavage (variant: UACGUAGGUGGUUUUCCACUGAUAGUGCUAAGGGGGCCUGGAAGUUUGGACUGGGCAGAGCUCAACACAGCGUGGCUAAGUGGCUGUGGCUAGACUGCCUCUCUGGAUUCCUCGUCACUCAGCAGGGCAUCUCUGAGAGAAAUGCC [C18A A77U] ) is 0.97

# self-cleavage (variant: UACGUAGGUGGUUUUCCCCUGAUAGUGCUAAGGGGGCCUGGAAGUUUGGACUGGGCAGAGCUCAACACAGCGUGGCAAAGUGGCUGUGGCUAGACUGCCUCUCUGGAUUACUCGUCACUCAGCAGGGCAUCUCUGAGGGAAAUGCC [C110A A138G] ) is 0.95

# self-cleavage (variant: UACGUAGGUGGUUUUCCCGUGAUAGUGCUAAGGGGGCCUGGAAGUUUGGACUGGGCAGAGCUCAACACAGCGUGGCAGAGUGGCUGUGGCUAGACUGCCUCUCUGGAUUCCUCGUCACUCAGCAGGGCAUCUCUGAGAGAAAUGCC [C19G A78G] ) is 1.24

# self-cleavage (variant: UACGUAUGUGGUUUUCCCCUGAUAGUGCUAAGGGGGCCUGGAAGUUUGGACUGGGCAGAGCUCAACACAGCGUGGCAAAGUGGCUGUGGCUAGACUGCCUCUCUGGAUUCCUCGUCACUCAGCAGGGCAUCUCUGAGAGGAAUGCC [G7U A140G] ) is 1.33

# self-cleavage (variant: UACGUAGGUGGUUUUCCCCUGAUAUUGCUAAGGGGGCCUGGAAGUUUGGACUGGGCAGAGCUCAACACAGCGUGGCAAAGUGGCUGUGGCUAGACUGCCUCUCUGGAUUCCUCAUCACUCAGCAGGGCAUCUCUGAGAGAAAUGCC [G25U G114A] ) is 1.13

# self-cleavage (variant: UACGUAGGUGGUUUUCCCCUGAUAGUGCUAAGGGGGCCUGGAAGUUUGGACUGGGCAGAGCUCAACACAGCGUGGCAAAGUGGCUGUAGCUAGACUGCCUCUCUGGAUUCCUCGCCACUCAGCAGGGCAUCUCUGAGAGAAAUGCC [G88A U115C] ) is 0.06

# self-cleavage (variant: UACGUAGGUGGUUUUCCCCUGAUAGUGCUAAGGGGGCCAGGAAGUUUGGACUAGGCAGAGCUCAACACAGCGUGGCAAAGUGGCUGUGGCUAGACUGCCUCUCUGGAUUCCUCGUCACUCAGCAGGGCAUCUCUGAGAGAAAUGCC [U39A G53A] ) is 1.33

# self-cleavage (variant: UACGUAAGUGGUUUUCCCCUGAUAGUGCUAAGGGGGCCUGGAAGUUUGGACUGGGCAGAGCUCAACACAGCGUGGCAAAGUGGCUGUGGCUAGACUGCCUCUCUGGGUUCCUCGUCACUCAGCAGGGCAUCUCUGAGAGAAAUGCC [G7A A107G] ) is 1.22

# self-cleavage (variant: UACGUAGGUGGUUUUCCCCUGAUAGUGCUAAGGGGGCCUGGAAGUUUGGACUGGGCAGGGCUCAACACAGCGUGGCAAAGUGGCUGUGGCUAGACCGCCUCUCUGGAUUCCUCGUCACUCAGCAGGGCAUCUCUGAGAGAAAUGCC [A59G U96C] ) is 0.04

# self-cleavage (variant: UACGUAGGUGGUUUACCCCUGAUAGUGCUAAGGGGGCCUGGAAGUUUGGACUGGGCAGAGCUCAACACAGCGUGGCAAAGUGGCUGUGGCUAGACUGCCUCUCUGGAUUCCUCGUCACUCAGCAGGGCAUCCCUGAGAGAAAUGCC [U15A U132C] ) is 0.98

# self-cleavage (variant: UACGUAGGUGGUUUUCCCCUGAUAGUGCUAAGGGGGCCUGGAAGUUUGGACUGGGCAGAGCUCAACACAGCCUGGCAAAGUGGCUGUGGCUAGACUGCCUCUCUGGAUUCCUCGUCACUCAGCAGGGCAUCUCAGAGAGAAAUGCC [G72C U134A] ) is 0.97

# self-cleavage (variant: UACGUAGGUGGUUUCCCCCUGAUAGUGCUAAGGGGGCCUGGAAGUUUGGACUGGGCAGAGCUCAACACAGCGUGGCAAAGUUGCUGUGGCUAGACUGCCUCUCUGGAUUCCUCGUCACUCAGCAGGGCAUCUCUGAGAGAAAUGCC [U15C G82U] ) is 1.9

# self-cleavage (variant: UACGUGGGUGGUUUUCCCCUGAUAGUGCUAACGGGGCCUGGAAGUUUGGACUGGGCAGAGCUCAACACAGCGUGGCAAAGUGGCUGUGGCUAGACUGCCUCUCUGGAUUCCUCGUCACUCAGCAGGGCAUCUCUGAGAGAAAUGCC [A6G G32C] ) is 0.65

# self-cleavage (variant: UACGUAGGUGGUGUUCCCCUGAUAGUGCUAAGGGGGCCUGGAAGUUUGGACUGGGCAGAGCUCAACACAGCGUGGCAAAGUGGCUGUGGCUAGACUGCCUCUCAGGAUUCCUCGUCACUCAGCAGGGCAUCUCUGAGAGAAAUGCC [U13G U104A] ) is 1.39

# self-cleavage (variant: UACGUAGGUGGUUUUCCCCUGAUAGUGCUAAGGGGGCCUGGAAGUUUGGACUGGGCAGAGCUCAACACAGCGUGGCAAAGUGGCGGUGGCUAGACUGCCUCCCUGGAUUCCUCGUCACUCAGCAGGGCAUCUCUGAGAGAAAUGCC [U85G U102C] ) is 0.55

# self-cleavage (variant: UACGUAGAUGGUUUUCCCCUGAUAGUGCUAAGGGGGCCUGGAAGUAUGGACUGGGCAGAGCUCAACACAGCGUGGCAAAGUGGCUGUGGCUAGACUGCCUCUCUGGAUUCCUCGUCACUCAGCAGGGCAUCUCUGAGAGAAAUGCC [G8A U46A] ) is 2.02

# self-cleavage (variant: UACGUAGGUGGUUUUCCCCUGAUAGUGCUAAGGGGGCCUGGAAGUUUGGACUGGGCAGAGCUCAACACAACGUGGCAAAGUGGCUGUGGCUAGACUGCCUCUCUGGAUUCCUCGUCACUCAGCCGGGCAUCUCUGAGAGAAAUGCC [G70A A124C] ) is 0.21

# self-cleavage (variant: UACGUAGGUGGUUUUCCCCUGAUAGUGCUAAGGGGGCCUGGAAGUUUGGACUGGGCAGAGCUCAACACAGCGCGGCAAAGUGGCUGUGGCUAGACUGCCUCCCUGGAUUCCUCGUCACUCAGCAGGGCAUCUCUGAGAGAAAUGCC [U73C U102C] ) is 1.11

# self-cleavage (variant: UACGUAGGUGAUUUUCCCCUGAUAGUGCUAAGGGGGCCUGGAAGUUUGGACUGGGCAGAACUCAACACAGCGUGGCAAAGUGGCUGUGGCUAGACUGCCUCUCUGGAUUCCUCGUCACUCAGCAGGGCAUCUCUGAGAGAAAUGCC [G11A G60A] ) is 0.01

# self-cleavage (variant: UACGUAGGUGGUUUUCCCCUGAUAGUGCUAAGGGGGCCUGGAAGUUUGGACUGGGCAGAGCUCAACACAGCGUGGCAAAGUGGCUGUGACUAGACCGCCUCUCUGGAUUCCUCGUCACUCAGCAGGGCAUCUCUGAGAGAAAUGCC [G89A U96C] ) is 0.07

# self-cleavage (variant: UACGUAGGUGGUCUUCCCCUGAUAGUGCUAAGGGGGCCUGGAAGUUUGGACUGGGCAGAGCUCAACACAGCGUGGCAAAGUGGCUGUGGCUAGACUGCCUCUCUGGAUUCCUCGUCACUCAGCAGGGCAACUCUGAGAGAAAUGCC [U13C U130A] ) is 1.6

# self-cleavage (variant: UAAGUAGGUGGUUUUCCCCUGAUAGUGCUAAGGGGGCCUGGAAGUUUGGACUGGGCAGAGCUCAACACAGCGUGGCAAAGUGGCUGUGGCUAGACUGCCUCUCUGGAUUCCUCGUCACUCAGCAGGACAUCUCUGAGAGAAAUGCC [C3A G127A] ) is 0.43

# self-cleavage (variant: UACGUAGGUGGUUUUCCCCUGAUAGUGCUAAGGGGGCCUGGAAGUUUGGACUGGGCAGAGCUCAACGCAGCGUGGCAAAGUGGCUGUGGCUAGACUGCCUCUCUGGUUUCCUCGUCACUCAGCAGGGCAUCUCUGAGAGAAAUGCC [A67G A107U] ) is 0.92
